# TEST_PARAMETERS: Crystal 2; DTA
VALUE_TYPE: Triple point temperature (K)

# SMILES_ENTRY, Triple point temperature / K
measured = [
    ("CCCCCCCCCCCCCCO", 310.45),
    ("CCCCCCCCCCCCCC(=O)O", 327.65),
    ("CCCCCCCCCCCC(=O)O", 317.9),
    ("CCCCCCCCCCCCCCCCO", 322.27),
    ("CCCCCCCCCCCCCCCCCCO", 330.97),
]

----------
# EXPERIMENT_SUMMARY: Molar enthalpy of transition or fusion
# TEST_PARAMETERS: Crystal 2; DSC
VALUE_TYPE: Molar enthalpy of transition or fusion (kcal/mol)

Answered examples (3):
# SMILES_ENTRY, Molar enthalpy of transition or fusion [kcal/mol]
records = [
    ("CCCCCCCCCCCCCCCCO", 13.5),
    ("CCCCCCCCCCCC(=O)O", 8.51),
    ("CCCCCCCCCCCCCCO", 11.4),
]

a = CCCCCCCCCCCCCC(=O)O
b = CCCCCCCCCCCCCCCCCCO
Exercise: Please compare: a and b . Report which one has the smaller Molar enthalpy of transition or fusion value. Please indicate the selected item by its label.
Key: a
(a: 10.5 kcal/mol, b: 15.6 kcal/mol)
